From: the RNAGym collection of RNA variant scans (doi:10.7554/elife.80360)

B1: HDV Ribozyme (parent)
chain: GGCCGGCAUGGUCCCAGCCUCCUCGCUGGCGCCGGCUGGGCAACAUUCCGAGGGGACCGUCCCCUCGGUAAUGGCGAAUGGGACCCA

- Variants of: B1
- Protocol: self-cleavage, relative activity (ratio to wild type); higher = more cleavage; co-transcriptional
Listed here are variants together with their documented self-cleavage.
Property label: self-cleavage

Var	Property label	Recorded value
C36A G74U	self-cleavage	0.14
G1A A51G	self-cleavage	0
C41G A45C	self-cleavage	0.166
G59U A71G	self-cleavage	1.13
A45G G54U	self-cleavage	1.17
A83C A87G	self-cleavage	0.302
G54C C66G	self-cleavage	0.591
G50U U79G	self-cleavage	0.802
A56G G68A	self-cleavage	0.96
A16U C86A	self-cleavage	1.03
C13A C22A	self-cleavage	0.0287
G38U G53U	self-cleavage	0.342
C19U U60G	self-cleavage	0.182
C13G A45G	self-cleavage	0.138
C22A C58A	self-cleavage	0.203
C32G A42C	self-cleavage	0.0678
A16C A42G	self-cleavage	0.229
G55U G76C	self-cleavage	1.08
G38A U60C	self-cleavage	0.0272
C66G U79A	self-cleavage	0.808
C19A C44A	self-cleavage	0.149
C3U	self-cleavage	0.802
